Hey, just so you know, these numbers are from PubChem BioAssay AID463173.

- Test system: Wild type
- assay: S. aureus survival, RN4220 and DeltatarO strains – OD600, teichoic acid synthesis inhibitors, primary screen (AID 463173)
- stated-conditions: S. aureus RN4220 wild type/DeltatarO growth, OD600, 18 h, stronger effect = lower value, screened at 18.75 µg/mL (by protocol)
About 1,700 (3.3%) of roughly 52,000 compounds were called active. The entries come from a sample that favours actives as a whole.
// values below are reported survival
test-readout: survival (%)

• Clc1cccc(Nc2ncnc3c2nc2n3CCCCC2)c1 = -1
• CCc1cccc(NC(=O)CCn2nc(C)cc2C)c1 = 77
• CCc1ccc(NCc2cccn2-c2nnc(N3CCCCCC3)s2)cc1 = -1
• CC(C)c1ccc(C(=O)Nc2ccc(-c3nc4ccccc4s3)c(Cl)c2)cc1 = 141
• O=S(=O)(Nc1ccc(O)c(Sc2nc3ccccc3s2)c1)c1cc(Cl)ccc1Cl = 0
• Cc1cc(S(=O)(=O)Nc2ccc(O)c(Sc3nc4ccccc4s3)c2)ccc1Cl = -2
• CCc1ccccc1NC(=O)CN1CCC(NC(=O)NC2CCCCC2)CC1 = 102
• Cc1nc2c(-c3ccc(F)cc3)c(C)nn2c(C)c1CCC(=O)N1CCN(c2ccccc2)CC1 = 75
• Cc1ccc(NCc2cccn2-c2nnc(N3CCCCCC3)s2)cc1 = 77
• Cc1nc2ccc(S(=O)(=O)NC(C(=O)NCc3ccccc3Cl)C(C)C)cc2s1 (stereo not drawn) = 85
• COc1ccccc1N1CCN(c2ncnc3c2cnn3-c2cc(Cl)ccc2C)CC1 = 136
• COc1ccc(C(CNC(=O)c2ccc(C)cc2)N2CCOCC2)cc1 (stereo not drawn) = 92
• Cc1ccc(CNC(=O)c2cc(-c3ccc(C)cc3)nc3n[nH]c(-c4cccc([N+](=O)[O-])c4)c23)cc1 = 74
• Clc1cccc(CNc2ncnc3c2nc2n3CCCC2)c1 = 92
• CC1CCc2nc3ncn(Cc4ccccc4F)c(=O)c3cc2C1 (stereo not drawn) = 53
• Fc1ccccc1Nc1ncnc2c1nc1n2CCCCC1 = 74
• Cc1ccc2oc(=O)n(CCNC(=O)Nc3ccccc3C)c2c1 = 119
• COc1ccccc1Nc1ncnc2c1nc1n2CCCCC1 = 133
• CC1CCc2nc3ncn(Cc4cccc(F)c4)c(=O)c3cc2C1 (stereo not drawn) = 66
• COc1ccccc1N1CCN(c2ncnc3c2cnn3-c2cccc(Cl)c2)CC1 = -4
• CCOC(=O)Cn1c(=O)n(-c2ccccc2OC)c2nc(-c3ccc(C(C)C)cc3)nc(C(N)=O)c21 = 82
• COc1ccc(-c2nc(N)n(C(C)=O)n2)cc1 = 107
• CC(=O)N1CCCc2cc(S(=O)(=O)N(C)CC(=O)Nc3cccc(Cl)c3C)ccc21 = 68
• CC(C)c1ccc(S(=O)(=O)Nc2ccc(O)c(Sc3nc4ccccc4s3)c2)cc1 = 0
• CCCn1c(=O)n(-c2ccccc2)c(=O)c2sc3ccccc3c21 = 93
• Cc1ccc(NC(=O)CN2C(=O)CSc3ccc(S(=O)(=O)N4CCCC4)cc32)cc1F = 99
• COc1cc(Nc2nc3ccc(Cl)cc3nc2-n2nc(C)cc2C)cc(OC)c1 = 93
• CC1CCc2nc3ncn(Cc4ccc(Cl)cc4)c(=O)c3cc2C1 (stereo not drawn) = 80
• Cc1ccc(Cn2cnc3nc4c(cc3c2=O)CC(C)CC4)cc1 (stereo not drawn) = -3
• Cc1ccccc1Cn1cnc2nc3c(cc2c1=O)CC(C)CC3 (stereo not drawn) = 0
• Cc1ccc(C2CCN(C(=O)Nc3ccc(Cl)c(Cl)c3)C2)cc1 (stereo not drawn) = -3
• O=C(COc1ccc(Cl)cc1)Nc1ccc(O)c(-c2nc3ccccc3s2)c1 = 69
• N#CCCCn1c(=O)oc2ccccc21 = 84
• COc1ccccc1N1CCN(c2ncnc3c2cnn3-c2ccc(C)cc2)CC1 = 63
• COc1ccc(N2CCN(C(=O)CN(c3cccc(C(F)(F)F)c3)S(C)(=O)=O)CC2)cc1 = 110
• CCn1cc(C(=O)NCCCN(CC(C)C)CC(C)C)c(=O)c2cc(S(=O)(=O)N3CCc4ccccc4C3)ccc21 = 80
• O=C(O)CCCn1c(=O)oc2ccccc21 = 99
• Cn1c(=O)sc2cc(NS(=O)(=O)c3ccc(C(C)(C)C)cc3)ccc21 = 73
• Cc1ccc(C)c(N2CCN(C(=O)C3CCN(c4nc(-c5ccc(C(C)C)cc5)no4)CC3)CC2)c1 = 87
• CC(C)(C)c1ccc(S(=O)(=O)Nc2ccc(O)c(Sc3nc4ccccc4s3)c2)cc1 = 3
• COc1ccccc1OCc1ccc(C(=O)NCc2ccncc2)o1 = 116
• CC(=O)c1c(C)oc2ccc(NS(=O)(=O)c3ccc(C(C)C)cc3)cc12 = 86
• COc1ccc(NCc2cccn2-c2nnc(N3CCCCCC3)s2)cc1 = 78

* * *

- System: Wild type
- assay: S. aureus survival, RN4220 and DeltatarO strains – OD600, teichoic acid synthesis inhibitors, primary screen (AID 463173)
- stated-conditions: S. aureus RN4220 wild type/DeltatarO growth, OD600, 18 h, stronger effect = lower value, screened at 18.75 µg/mL (by protocol)
Out of some 52,000 compounds screened, about 1,700 (3.3%) were called active. Only a selection was taken, and actives are over-represented in it overall.
test-readout: survival (%)

- COc1ccc(S(=O)(=O)Nc2cccc(-c3ccc(N4CCCCCC4)nn3)c2)cc1F: 71
- CCc1ccc(OC(C)C(=O)N2CCC(c3nc4ccccc4s3)CC2)cc1 (stereo unspecified): 35
- O=S(=O)(Cc1ccccc1)N1CCC(c2nc(-c3cccs3)no2)CC1: 110
- CCCOc1ccccc1C(=O)N1CCC(c2nc3ccccc3s2)CC1: 68
- COc1ccc(-n2ncc3c2ncn2nc(-c4ccc(Cl)cc4Cl)nc32)cc1: 92
- COCCN(Cc1ccc(C)c(Br)c1)S(=O)(=O)c1ccc2[nH]c(=O)ccc2c1: -3
- CCCc1cc(=O)[nH]c2nnc(SC(C)CC)n12 (stereo unspecified): 80
- CCc1cccc(NS(=O)(=O)c2ccc3c(c2)CC(C)N3C(=O)C2CC2)c1 (stereo unspecified): 80
- Cc1cccc(NC(=O)CCn2cnnn2)c1C: 71
- Cn1nnc2c(NCc3ccc(Cl)cc3)ncnc21: 88
- CC(Oc1ccc(F)cc1)C(=O)N1CCC(c2nc3ccccc3s2)CC1 (stereo unspecified): 80

* * *

- Test system: Wild type
- assay: S. aureus survival, RN4220 and DeltatarO strains – OD600, teichoic acid synthesis inhibitors, primary screen (AID 463173)
- stated-conditions: S. aureus RN4220 wild type/DeltatarO growth, OD600, 18 h, stronger effect = lower value, screened at 18.75 µg/mL (by protocol)
Out of some 52,000 compounds screened, about 1,700 (3.3%) were called active. What follows is part of a selection rich in actives, with near analogues and random picks from the rest.
Checkbox rule: survival lower than 70% = Met; survival not lower than 70% = Not met.

- Cn1cc(S(=O)(=O)c2cccc(Cl)c2)c(=O)c2cc(F)c(N3CCN(c4ccccc4)CC3)cc21: Met
- O=C(Oc1ccccc1Cl)c1cc(-c2ccc3c(c2)OCCO3)on1: Met
- COc1ccccc1C(=O)Nc1ccc(-c2nc3ccccc3s2)c(C)c1: Not met
- O=C(Nc1ccccc1C(F)(F)F)c1cc(-c2ccc3c(c2)OCCO3)on1: Not met
- CCOC(=O)c1cc(-c2ccc(OC)c(S(=O)(=O)NCc3ccccc3Cl)c2)on1: Not met
- O=c1c(S(=O)(=O)c2ccccc2)cn(Cc2ccc(F)cc2)c2cc(N3CCCCC3)c(F)cc12: Not met
- Cn1cc(S(=O)(=O)c2cccc(Cl)c2)c(=O)c2cc(F)c(N3CCN(c4ccc(F)cc4)CC3)cc21: Not met
- COc1ccc(-c2nc3ccccc3s2)cc1NC(=O)COc1cccc(C)c1: Met
- Cc1cc(C)cc(OCC(=O)Nc2ccc(-c3nc4ccccc4s3)cc2)c1: Not met
- CCn1cc(S(=O)(=O)c2cc(C)cc(C)c2)c(=O)c2cc(F)c(N3CCCC3)cc21: Not met
- COc1cccc(CC(=O)Nc2ccc(-c3nc4ccccc4s3)cc2)c1: Met
- Cc1ccc(NC(=O)c2cc(-c3ccc4c(c3)OCO4)on2)cc1: Not met
- Cc1ccc2nsnc2c1S(=O)(=O)NC(C)(C)C: Not met
- O=C(C1CCC(Cn2c(=O)c3sccc3n(Cc3ccccc3)c2=O)CC1)N1CCOCC1 (stereo not given): Not met
- CCN1CCN(c2cc3c(cc2F)c(=O)c(S(=O)(=O)c2cc(C)cc(C)c2)cn3CC)CC1: Met
- Cc1cccc(OCC(=O)Nc2cccc(-c3nc4ccccc4s3)c2)c1: Met
- COc1ccc(CC(=O)Nc2ccc(-c3nc4ccccc4s3)c(C)c2)cc1OC: Met
- COc1cc(C)c(Cl)cc1S(=O)(=O)NCCc1c(C)[nH]c2ccccc12: Not met
- Cc1cccc(S(=O)(=O)c2cn(Cc3ccccc3)c3cc(N4CCCCC4)c(F)cc3c2=O)c1: Not met
